System: α-amylase
Test: α-Amylase inhibition assay
Format: biochemical
Details: 10 μM
endpoint: % age α-amylase inhibition (%)

# compound, experimental target, % age α-amylase inhibition [%]
rows = [
    ("CC(CCc1ccccc1)=NNc1nc(-c2ccc(F)cc2)cs1", "α-amylase", 58.12),
    ("Fc1ccc(-c2csc(NN=Cc3ccc(C(F)(F)F)cc3)n2)cc1", "α-amylase", 62.35),
    ("C[C@H]1O[C@H](O[C@H]2[C@H](O)[C@@H](O)[C@@H](O[C@H]3[C@H](O)[C@@H](O)C(O)O[C@@H]3CO)O[C@@H]2CO)[C@H](O)[C@@H](O)[C@@H]1N[C@H]1C=C(CO)[C@@H](O)[C@H](O)[C@H]1O (stereo partly drawn) [acarbose, reference compound]", "α-amylase", 74.77),
]
